target: PRMT5/MEP50 (Homo sapiens, UniProt O14744); construct: Expressed full-length human Flag-PRMT5/6His-MeP50 protein complex was purified; made in house; host or cells: Spodoptera frugiperda (SF9) insect cells, baculovirus (pDEST8); experiment: PRMT5 Biochemical Assay (PRMT5/MEP50 enzyme assay on peptide substrate, 3H-SAM Flashplate); details: Table D-2; read-out: Biochemical IC50
Sequence (O14744 with tags, fused parts or gaps): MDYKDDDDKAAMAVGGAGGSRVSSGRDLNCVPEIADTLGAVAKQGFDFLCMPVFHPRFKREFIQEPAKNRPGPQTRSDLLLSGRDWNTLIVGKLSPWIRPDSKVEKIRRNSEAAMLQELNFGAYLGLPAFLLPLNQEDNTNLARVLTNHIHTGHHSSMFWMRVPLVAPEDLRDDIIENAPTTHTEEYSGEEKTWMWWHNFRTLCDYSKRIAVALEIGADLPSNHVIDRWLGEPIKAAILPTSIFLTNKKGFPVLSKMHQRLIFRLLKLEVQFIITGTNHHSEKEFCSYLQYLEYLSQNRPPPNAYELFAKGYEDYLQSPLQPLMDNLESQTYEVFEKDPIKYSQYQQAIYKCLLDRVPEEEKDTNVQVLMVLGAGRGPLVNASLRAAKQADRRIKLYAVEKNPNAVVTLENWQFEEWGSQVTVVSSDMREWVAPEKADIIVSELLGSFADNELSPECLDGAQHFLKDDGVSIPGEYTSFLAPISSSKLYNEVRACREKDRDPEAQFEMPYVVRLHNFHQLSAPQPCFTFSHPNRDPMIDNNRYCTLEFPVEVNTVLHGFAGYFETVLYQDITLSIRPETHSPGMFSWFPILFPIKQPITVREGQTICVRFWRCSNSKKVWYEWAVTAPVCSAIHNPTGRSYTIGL
Sequence (Q9BQA1 with tags, fused parts or gaps partner limits assumed): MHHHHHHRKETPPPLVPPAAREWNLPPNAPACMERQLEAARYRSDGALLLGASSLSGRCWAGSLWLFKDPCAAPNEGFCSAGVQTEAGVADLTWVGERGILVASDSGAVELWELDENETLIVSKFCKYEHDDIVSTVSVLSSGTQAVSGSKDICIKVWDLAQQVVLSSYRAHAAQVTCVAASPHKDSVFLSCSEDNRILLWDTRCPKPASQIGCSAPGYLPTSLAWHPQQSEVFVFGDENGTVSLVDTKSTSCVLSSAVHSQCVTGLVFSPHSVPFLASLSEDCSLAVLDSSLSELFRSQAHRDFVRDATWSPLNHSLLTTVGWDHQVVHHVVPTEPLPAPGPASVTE
pIC50: −log10 of the molar value.
readout name: pIC50

Would you please look over these solved cases?
- CN1CCC(n2cnc3ccc(-c4ccnc(NCC(O)CN5CCc6ccccc6C5)c4)cc32)C1 (centres unmarked) [Compound D250]: > 7.00
- OC(COCc1ccc(OCc2ccccc2)cc1)CN1CCc2ccccc2C1 (centres unmarked) [Compound D12]: 5.00 to 6.00
- OC(COc1cccc(-c2cccc(Cl)c2)c1)CN1CCc2ccccc2C1 (centres unmarked) [Compound D91]: 5.00 to 6.00
- OC(COc1cccc(CNC2CCOCC2)c1)CN1CCc2ccccc2C1 (centres unmarked) [Compound D5]: 6.00 to 7.00
- CN1CCN(C(=O)Cn2cnc3ccc(-c4cccc(OCC(O)CN5CCc6ccccc6C5)c4)cc32)CC1 (centres unmarked) [Compound D270]: 6.00 to 7.00
- OC(COCc1ccc(Cl)cc1)CN1CCc2ccccc2C1 (centres unmarked) [Compound D278]: 5.00 to 6.00
- OC(COc1cccc(-c2ccccc2F)c1)CN1CCc2ccccc2C1 (centres unmarked) [Compound D154]: 6.00 to 7.00
- OC(CNc1cc(-c2ncc3ccn(C4CNC4)c3n2)ccn1)CN1CCc2ccccc2C1 (centres unmarked) [Compound D254]: > 7.00
- Cn1ccc2ccc(-c3cc(NCC(O)CN4CCc5ccccc5C4)ncn3)cc21 (centres unmarked) [Compound D237]: 6.00 to 7.00
- OC(COc1ccccc1C1CCCCC1)CN1CCc2ccccc2C1 (centres unmarked) [Compound D8]: 5.00 to 6.00

For PRMT5/MEP50 (Homo sapiens, UniProt O14744), give pIC50 of the listed compound: COc1cccc2c1CCN(CC(O)COc1cccc(CNC3CCCC3)c1)C2 (centres unmarked) [Compound D54] < 4.40

For PRMT5/MEP50 (Homo sapiens, UniProt O14744), give pIC50 of the listed compound: N#Cc1ccc(-c2cccc(OCC(O)CN3CCc4ccccc4C3)c2)cc1 (centres unmarked) [Compound D94] 6.00 to 7.00

For PRMT5/MEP50 (Homo sapiens, UniProt O14744), give pIC50 of the listed compound: CN1CCC(OCC(O)CN2CCc3ccccc3C2)C1 (centres unmarked) [Compound D307] < 4.40

For PRMT5/MEP50 (Homo sapiens, UniProt O14744), give pIC50 of the listed compound: Cn1ncc2cnc(-c3cccc(OCC(O)CN4CCc5ccccc5C4)c3)cc21 (centres unmarked) [Compound D248] 6.00 to 7.00

For PRMT5/MEP50 (Homo sapiens, UniProt O14744), give pIC50 of the listed compound: OC(COCc1ccccn1)CN1CCc2ccccc2C1 (centres unmarked) [Compound D282] 4.40 to 5.00

For PRMT5/MEP50 (Homo sapiens, UniProt O14744), give pIC50 of the listed compound: Cn1cnc2ccc(N3CCCC(OCC(O)CN4CCc5ccccc5C4)C3)cc21 (centres unmarked) [Compound D66] 6.00 to 7.00

For PRMT5/MEP50 (Homo sapiens, UniProt O14744), give pIC50 of the listed compound: COc1cccc2c1CN(CC(O)COc1cccc(CNC3CCCC3)c1)CC2 (centres unmarked) [Compound D29] 4.40 to 5.00

For PRMT5/MEP50 (Homo sapiens, UniProt O14744), give pIC50 of the listed compound: OC(COc1cccc(-c2cc(Cl)cc(C(F)(F)F)c2)c1)CN1CCc2ccccc2C1 (centres unmarked) [Compound D128] 5.00 to 6.00

For PRMT5/MEP50 (Homo sapiens, UniProt O14744), give pIC50 of the listed compound: Cn1cnc2ccc(-c3cccc(NCC(O)CN4CCc5ccccc5C4)c3)cc21 (centres unmarked) [Compound D102] > 7.00

For PRMT5/MEP50 (Homo sapiens, UniProt O14744), give pIC50 of the listed compound: N#CCc1cccc(-c2cccc(OCC(O)CN3CCc4ccccc4C3)c2)c1 (centres unmarked) [Compound D111] 6.00 to 7.00
